# measured-on: UapA (Aspergillus nidulans)
# Construct: full-length, C-terminal GFP tag (plasmid pAN510-GFP), expressed in A. nidulans uapAΔ uapCΔ azgAΔ pabaA1 argB2; homodimer
# Sequence (Q07307 whole entry): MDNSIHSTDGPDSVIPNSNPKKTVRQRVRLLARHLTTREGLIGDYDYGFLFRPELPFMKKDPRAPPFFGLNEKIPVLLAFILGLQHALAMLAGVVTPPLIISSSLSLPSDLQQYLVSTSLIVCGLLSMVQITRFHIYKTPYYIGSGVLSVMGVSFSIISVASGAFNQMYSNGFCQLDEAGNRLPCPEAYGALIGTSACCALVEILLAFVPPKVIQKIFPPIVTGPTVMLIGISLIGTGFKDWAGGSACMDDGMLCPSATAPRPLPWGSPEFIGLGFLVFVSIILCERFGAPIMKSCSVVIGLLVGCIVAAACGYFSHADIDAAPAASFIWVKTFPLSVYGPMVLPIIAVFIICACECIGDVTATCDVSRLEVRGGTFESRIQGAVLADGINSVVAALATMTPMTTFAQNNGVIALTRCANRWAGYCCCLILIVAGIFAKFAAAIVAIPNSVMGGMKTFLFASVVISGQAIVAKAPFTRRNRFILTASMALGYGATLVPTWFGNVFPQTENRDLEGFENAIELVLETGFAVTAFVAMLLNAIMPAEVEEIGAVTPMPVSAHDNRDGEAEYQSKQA
# assay-text: inhibition of [3H]-xanthine uptake in germinating conidiospores
# Type: cell-based
pKi: −log10 of the molar value.
value-kind: pKi

Provide pKi value for the following molecule: O=C1O[C@H]([C@@H](O)CO)C(O)=C1O [L-ascorbate]
~1.77
